Reference source: paper PMC2409936

Test Protocol: Plasma pharmacokinetics in patients (LC-MS, noncompartmental analysis)
Format: in vivo, human
Experimental Setup: human, plasma, oral; 180 mg day^−1, first treatment course, mean, N=3
Measure Name: AUC(0-t) (ng·h/mL)
State just the number; it will be interpreted in ng·h/mL.

Prompt: What does the data say about its AUC(0-t)? Entry: COc1cccc2c1ccc1nc3cccc(C(=O)N[C@H](C)CN(C)C)c3nc12 [XR11576]
Completion: 970

----------
Test Protocol: Plasma pharmacokinetics in patients (LC-MS, noncompartmental analysis)
Assay type: in vivo, human
Experimental Setup: human, plasma, oral; 180 mg day^−1, first treatment course, mean, N=3
Method: For PK analysis, 58 blood samples (∼5 ml each) were obtained from an indwelling intravenous cannula and collected in vials containing lithium heparin as anticoagulant. […] All samples were centrifuged immediately after sampling at 3000 r.p.m. for 10 min at 4°C and the plasma was stored at −20°C or lower in polypropylene tubes in the dark until analysis. […] Of the total amount collected, a measured quantity of 10 ml was drawn off and stored at −80°C until analysis. […]
Measure Name: Tmax (h)
State just the number; it will be interpreted in h.

Prompt: What does the data say about its Tmax? Entry: COc1cccc2c1ccc1nc3cccc(C(=O)N[C@H](C)CN(C)C)c3nc12
Completion: 4.67

----------
Test Protocol: Plasma pharmacokinetics in patients (LC-MS, noncompartmental analysis)
Assay type: in vivo, human
Experimental Setup: human, plasma, oral; 150 mg day^−1, first treatment course, mean, N=3
Measure Name: AUC(0-inf) (ng·h/mL)
State just the number; it will be interpreted in ng·h/mL.

Prompt: What does the data say about its AUC(0-inf)? Entry: COc1cccc2c1ccc1nc3cccc(C(=O)N[C@H](C)CN(C)C)c3nc12
Completion: 2240

----------
Test Protocol: Plasma pharmacokinetics in patients (LC-MS, noncompartmental analysis)
Assay type: in vivo, human
Experimental Setup: human, plasma, oral; 180 mg day^−1, first treatment course, mean, N=3
Measure Name: Cmax
In your response, put the unit directly after the numeric value.

Prompt: What does the data say about its Cmax? Entry: COc1cccc2c1ccc1nc3cccc(C(=O)N[C@H](C)CN(C)C)c3nc12
Completion: 112 ng/mL

----------
Test Protocol: Plasma pharmacokinetics in patients (LC-MS, noncompartmental analysis)
Type: in vivo, human
Experimental Setup: human, plasma, oral; 60 mg day^−1, first treatment course, mean, N=4; read-out: T1/2 (converted)
Measure Name: half-life (h)
State just the number; it will be interpreted in h.

Prompt: What does the data say about its half-life? Entry: COc1cccc2c1ccc1nc3cccc(C(=O)N[C@H](C)CN(C)C)c3nc12
Completion: 68.8

----------
Test Protocol: Plasma pharmacokinetics in patients (LC-MS, noncompartmental analysis)
Format: in vivo, human
Experimental Setup: human, plasma, oral; 120 mg day^−1, first treatment course, mean, N=8; read-out: T1/2 (converted)
Measure Name: half-life (h)
State just the number; it will be interpreted in h.

Prompt: What does the data say about its half-life? Entry: COc1cccc2c1ccc1nc3cccc(C(=O)N[C@H](C)CN(C)C)c3nc12
Completion: 31.2

----------
Test Protocol: Plasma pharmacokinetics in patients (LC-MS, noncompartmental analysis)
Type: in vivo, human
Experimental Setup: human, plasma, oral; 60 mg day^−1, first treatment course, mean, N=4
Measure Name: AUC(0-inf)

Prompt: What does the data say about its AUC(0-inf)? Entry: COc1cccc2c1ccc1nc3cccc(C(=O)N[C@H](C)CN(C)C)c3nc12 [XR11576]
Completion: 517 ng·h/mL

----------
Test Protocol: Plasma pharmacokinetics in patients (LC-MS, noncompartmental analysis)
Type: in vivo, human
Experimental Setup: human, plasma, oral; 60 mg day^−1, first treatment course, mean, N=4
Measure Name: Cmax (ng/mL)
State just the number; it will be interpreted in ng/mL.

Prompt: What does the data say about its Cmax? Entry: COc1cccc2c1ccc1nc3cccc(C(=O)N[C@H](C)CN(C)C)c3nc12
Completion: 21.7

----------
Test Protocol: Plasma pharmacokinetics in patients (LC-MS, noncompartmental analysis)
Format: in vivo, human
Experimental Setup: human, plasma, oral; 60 mg day^−1, first treatment course, mean, N=4
Measure Name: Tmax (h)
State just the number; it will be interpreted in h.

Prompt: What does the data say about its Tmax? Entry: COc1cccc2c1ccc1nc3cccc(C(=O)N[C@H](C)CN(C)C)c3nc12
Completion: 3.5

----------
Test Protocol: Plasma pharmacokinetics in patients (LC-MS, noncompartmental analysis)
Type: in vivo, human
Experimental Setup: human, plasma, oral; 30 mg day^−1, first treatment course, mean, N=3; read-out: T1/2 (converted)
Measure Name: half-life
In your response, put the unit directly after the numeric value.

Prompt: What does the data say about its half-life? Entry: COc1cccc2c1ccc1nc3cccc(C(=O)N[C@H](C)CN(C)C)c3nc12 [XR11576]
Completion: 5.53 h
